Reported ΔsseA inhibition of growth values for the following compounds.
Tested on: E. coli ΔsseA (3MST-deficient) strain
Assay type: cell-based
Conditions: Table 1; relative values of growth inhibition (negative numbers), ΔsseA vs wt E. coli
measurement.kind: ΔsseA inhibition of growth

[[record]]
compound = "CN(C)CCCN1c2ccccc2Sc2ccc(Cl)cc21"
quantitative_readout = "−251"

[[record]]
compound = "CSc1ccc2c(c1)N(CCC1CCCCN1C)c1ccccc1S2 (stereo not shown)"
quantitative_readout = "−313"

[[record]]
compound = "CC[C@H]1OC(=O)[C@H](C)[C@@H](O[C@H]2C[C@@](C)(OC)[C@@H](O)[C@H](C)O2)[C@H](C)[C@@H](O[C@@H]2O[C@H](C)C[C@H](N(C)C)[C@H]2O)[C@](C)(O)C[C@@H](C)C(=O)[C@H](C)[C@@H](O)[C@]1(C)O"
quantitative_readout = "−468"

[[record]]
compound = "CCCCCCCC[N+](C)(CCCCCCCC)CCCCCCCC.[Cl-] [Methyltrioctylammonium chloride]"
quantitative_readout = "−326"

[[record]]
compound = "NC(=O)c1cc[n+](CC2=C(C(=O)O)N3C(=O)[C@@H](NC(=O)[C@@H](c4ccccc4)S(=O)(=O)[O-])[C@H]3SC2)cc1"
quantitative_readout = "−201"

[[record]]
compound = "Cn1c(=O)c2c(ncn2C)n(C)c1=O"
quantitative_readout = "−173"

[[record]]
compound = "Nc1c2ccccc2nc2ccccc12"
quantitative_readout = "−142"

[[record]]
compound = "CC(C(=O)O)c1cccc(C(=O)c2ccccc2)c1 (stereo not shown)"
quantitative_readout = "−468"

[[record]]
compound = "CO[C@H]1C[C@H](O[C@H]2[C@H](C)[C@@H](O[C@@H]3O[C@H](C)C[C@H](N(C)C)[C@H]3O)[C@@H](C)C[C@@]3(CO3)C(=O)[C@H](C)[C@@H](O)[C@@H](C)[C@@H](C)OC(=O)[C@@H]2C)O[C@@H](C)[C@@H]1O"
quantitative_readout = "−498"

[[record]]
compound = "CCn1cc(C(=O)O)c(=O)c2cc(F)c(N3CCNCC3)cc21"
quantitative_readout = "−212"

[[record]]
compound = "CCCCCCCC(=O)[O-].[Na+] [Sodium caprylate]"
quantitative_readout = "−346"

[[record]]
compound = "CCn1cc(C(=O)O)c(=O)c2ccc(C)nc21"
quantitative_readout = "−183"

[[record]]
compound = "O=C1C2CC=CCC2C(=O)N1SC(Cl)(Cl)Cl (stereo not shown)"
quantitative_readout = "−357"

[[record]]
compound = "Cc1onc(-c2ccccc2)c1C(=O)N[C@@H]1C(=O)N2[C@@H]1SC(C)(C)[C@@H]2C(=O)O"
quantitative_readout = "−346"

[[record]]
compound = "CCN(CC)CC(=O)Nc1c(C)cccc1C"
quantitative_readout = "−269"

[[record]]
compound = "CC[C@H]1OC(=O)C[C@@H](O)[C@H](C)[C@@H](O[C@@H]2O[C@H](C)[C@@H](O[C@H]3C[C@@](C)(O)[C@@H](O)[C@H](C)O3)[C@H](N(C)C)[C@H]2O)[C@@H](CC=O)C[C@@H](C)C(=O)/C=C/C(C)=C/[C@@H]1CO[C@@H]1O[C@H](C)[C@@H](O)[C@@H](OC)[C@H]1OC"
quantitative_readout = "−520"


###

Tested on: P. aeruginosa PAO1
Test: MIC of antibiotics with or without PAG/AOAA
Assay type: cell-based
Details: in the presence of 0.1 mM AOAA
measurement.kind: Minimum inhibitory concentration (µg/mL)

[[record]]
compound = "C[C@H]1COc2c(N3CCN(C)CC3)c(F)cc3c(=O)c(C(=O)O)cn1c23 [Levoflaxacin, levofloxacin]"
readout_qualifier = "="
quantitative_readout = 0.5

[[record]]
compound = "CO/N=C(\\C(=O)N[C@@H]1C(=O)N2C(C(=O)[O-])=C(C[N+]3(C)CCCC3)CS[C@H]12)c1csc(N)n1 [Cetepine, cefepime]"
readout_qualifier = "="
quantitative_readout = 2

[[record]]
compound = "C[C@@H](O)[C@H]1C(=O)N2C(C(=O)O)=C(S[C@@H]3CN[C@H](C(=O)N(C)C)C3)[C@H](C)[C@H]12 [Meropenom, meropenem]"
readout_qualifier = "="
quantitative_readout = 0.5

[[record]]
compound = "CCCCCCCCCC(=O)N[C@@H](Cc1c[nH]c2ccccc12)C(=O)N[C@H](CC(N)=O)C(=O)N[C@@H](CC(=O)O)C(=O)N[C@@H]1C(=O)NCC(=O)N[C@@H](CCCN)C(=O)N[C@@H](CC(=O)O)C(=O)N[C@H](C)C(=O)N[C@@H](CC(=O)O)C(=O)NCC(=O)N[C@H](CO)C(=O)N[C@@H]([C@H](C)CC(=O)O)C(=O)N[C@@H](CC(=O)c2ccccc2N)C(=O)O[C@@H]1C [Daptomycin, daptomycin]"
readout_qualifier = ">"
quantitative_readout = 64

[[record]]
compound = "CCN1CCN(C(=O)N[C@@H](C(=O)N[C@@H]2C(=O)N3[C@@H]2SC(C)(C)[C@@H]3C(=O)O)c2ccccc2)C(=O)C1=O [Piperacilin, piperacillin]"
readout_qualifier = "="
quantitative_readout = 4

[[record]]
compound = "O=C(N[C@H](CO)[C@H](O)c1ccc([N+](=O)[O-])cc1)C(Cl)Cl [Chloramphenicol]"
readout_qualifier = "="
quantitative_readout = 64

[[record]]
compound = "CN[C@H](CC(C)C)C(=O)N[C@H]1C(=O)N[C@@H](CC(N)=O)C(=O)N[C@H]2C(=O)N[C@H]3C(=O)N[C@H](C(=O)N[C@H](C(=O)O)c4cc(O)cc(O)c4-c4cc3ccc4O)[C@H](O)c3ccc(c(Cl)c3)Oc3cc2cc(c3O[C@@H]2O[C@H](CO)[C@@H](O)[C@H](O)[C@H]2O[C@H]2C[C@](C)(N)[C@H](O)[C@H](C)O2)Oc2ccc(cc2Cl)[C@H]1O [Vancomycin]"
readout_qualifier = ">"
quantitative_readout = 64

[[record]]
compound = "CC(=O)NC[C@H]1CN(c2ccc(N3CCOCC3)c(F)c2)C(=O)O1 [Linezold, linezolid]"
readout_qualifier = ">"
quantitative_readout = 64


###

Reported ΔsseA inhibition of growth values for the following compounds.
Tested on: E. coli ΔsseA (3MST-deficient) strain
Type: cell-based
Conditions: Table 1; relative values of growth inhibition (negative numbers), ΔsseA vs wt E. coli
measurement.kind: ΔsseA inhibition of growth

[[record]]
compound = "CC(Oc1ccccc1)C(=O)N[C@@H]1C(=O)N2[C@@H]1SC(C)(C)[C@@H]2C(=O)O (stereo partly drawn)"
quantitative_readout = "−216"

[[record]]
compound = "CCN(CC)C(=S)SSC(=S)N(CC)CC"
quantitative_readout = "−246"

[[record]]
compound = "OC(CCN1CCCCC1)(c1ccccc1)c1ccccc1"
quantitative_readout = "−206"

[[record]]
compound = "N.N.N.N.N.N.N.N.N.N.N.N.N.N.[Cl-].[Cl-].[Cl-].[Cl-].[Cl-].[Cl-].[O-2].[O-2].[Ru+3].[Ru+3].[Ru+4]"
quantitative_readout = "−268"

[[record]]
compound = "CCCCC(CC)CNC(=N)NC(=N)NCCCCCCNC(=N)NC(=N)NCC(CC)CCCC (stereo not drawn)"
quantitative_readout = "−216"

[[record]]
compound = "CCCCCCCCCCCC[N+](C)(C)CCOc1ccccc1 [Domiphen bromide]"
quantitative_readout = "−250"

[[record]]
compound = "O=c1ccc2ccccc2o1"
quantitative_readout = "−243"

[[record]]
compound = "O=[N+]([O-])c1ccc(O)c([N+](=O)[O-])c1"
quantitative_readout = "−296"

[[record]]
compound = "CCCCCCCCCCCC[N+](C)(C)C.[Br-] [Dodecyltrimethyl ammonium bromide]"
quantitative_readout = "−225"


###

System: E. coli ΔsseA (3MST-deficient) strain
Type: cell-based
Conditions: Table 1; relative values of growth inhibition (negative numbers), ΔsseA vs wt E. coli
Reported ΔsseA inhibition of growth values for the following compounds.
measurement.kind: ΔsseA inhibition of growth

[[record]]
compound = "CN(C)CCC=C1c2ccccc2CCc2ccccc21"
measurement_kind = "ΔsseA inhibition of growth"
quantitative_readout = "−422"

[[record]]
compound = "CCS(=O)(=O)CCn1c([N+](=O)[O-])cnc1C"
measurement_kind = "ΔsseA inhibition of growth"
quantitative_readout = "−223"

[[record]]
compound = "CCOc1ccc2ccccc2c1C(=O)N[C@@H]1C(=O)N2[C@@H]1SC(C)(C)[C@@H]2C(=O)O"
measurement_kind = "ΔsseA inhibition of growth"
quantitative_readout = "−227"

[[record]]
compound = "O=C(O)CCCc1ccc(N(CCCl)CCCl)cc1"
measurement_kind = "ΔsseA inhibition of growth"
quantitative_readout = "−177"

[[record]]
compound = "COc1cc(Cc2cnc(N)nc2N)cc(OC)c1OC"
measurement_kind = "ΔsseA inhibition of growth"
quantitative_readout = "−212"

[[record]]
compound = "Nc1ccn([C@@H]2O[C@H](CO)[C@@H](O)[C@@H]2O)c(=O)n1 [Cytosine arabinoside]"
measurement_kind = "ΔsseA inhibition of growth"
quantitative_readout = "−281"

[[record]]
compound = "CO[C@H]1C[C@H](O[C@H]2[C@H](C)[C@@H](O[C@@H]3O[C@H](C)C[C@H](N(C)C)[C@H]3OC(C)=O)[C@@H](C)C[C@@]3(CO3)C(=O)[C@H](C)[C@@H](OC(C)=O)[C@@H](C)[C@@H](C)OC(=O)[C@@H]2C)O[C@@H](C)[C@@H]1OC(C)=O"
measurement_kind = "ΔsseA inhibition of growth"
quantitative_readout = "−203"

[[record]]
compound = "CN[C@H](CC(C)C)C(=O)N[C@H]1C(=O)N[C@@H](CC(N)=O)C(=O)N[C@H]2C(=O)N[C@H]3C(=O)N[C@H](C(=O)N[C@H](C(=O)O)c4cc(O)cc(O)c4-c4cc3ccc4O)[C@H](O)c3ccc(c(Cl)c3)Oc3cc2cc(c3O[C@@H]2O[C@H](CO)[C@@H](O)[C@H](O)[C@H]2O[C@H]2C[C@](C)(N)[C@H](O)[C@H](C)O2)Oc2ccc(cc2Cl)[C@H]1O"
measurement_kind = "ΔsseA inhibition of growth"
quantitative_readout = "−198"

[[record]]
compound = "CCN1CCN(C(=O)N[C@@H](C(=O)N[C@@H]2C(=O)N3C(C(=O)O)=C(CSc4nnnn4C)CS[C@H]23)c2ccc(O)cc2)C(=O)C1=O"
measurement_kind = "ΔsseA inhibition of growth"
quantitative_readout = "−159"

[[record]]
compound = "O=C(N[C@H](CO)[C@H](O)c1ccc([N+](=O)[O-])cc1)C(Cl)Cl"
measurement_kind = "ΔsseA inhibition of growth"
quantitative_readout = "−136"

[[record]]
compound = "CC(C)NCC(O)COc1cccc2ccccc12 (stereo not shown)"
measurement_kind = "ΔsseA inhibition of growth"
quantitative_readout = "−263"

[[record]]
compound = "CC(=O)O[C@H]1C[C@@]2(C)[C@@H](C[C@@H](O)[C@H]3[C@@]4(C)CC[C@@H](O)[C@@H](C)[C@@H]4CC[C@@]32C)/C1=C(\\CCC=C(C)C)C(=O)O"
measurement_kind = "ΔsseA inhibition of growth"
quantitative_readout = "−271"

[[record]]
compound = "N#CO [Sodium cyanate]"
measurement_kind = "ΔsseA inhibition of growth"
quantitative_readout = "−238"

